Listing: SI of selected compounds
assay notes: Selectivity index determined for CC50 (test II) to EC50 x 10e3
Type: functional
Returns: the value as a bare number; no unit string appended.

Examples with their reported SI follow.
NCCCC[C@@H]1NC(=O)[C@@H](CCCCN)NC(=O)[C@H](CCCNC(N)=O)NC(=O)[C@@H](Cc2ccc(O)cc2)NC(=O)[C@H](NC(=O)[C@@H](NC(=O)[C@H](CCCN=C(N)N)NC(=O)[C@@H](N)CCCN=C(N)N)c2ccc3ccccc3c2)CSSC[C@H](C(=O)N[C@@H](CCCN=C(N)N)C(N)=O)NC(=O)[C@H](CCCNC(N)=O)NC(=O)[C@H](CCCN=C(N)N)NC(=O)[C@H](Cc2ccc(O)cc2)NC(=O)[C@H]2CCCN2C1=O    680
NCCCC[C@@H]1NC(=O)[C@@H](CCCCN)NC(=O)[C@H](CCCN=C(N)N)NC(=O)[C@@H](Cc2ccc(O)cc2)NC(=O)[C@H](NC(=O)[C@@H](NC(=O)[C@H](CCCN=C(N)N)NC(=O)[C@@H](N)CCCNC(N)=O)c2ccc3ccccc3c2)CSSC[C@H](C(=O)N[C@@H](CCCN=C(N)N)C(N)=O)NC(=O)[C@H](CCCNC(N)=O)NC(=O)[C@H](CCCNC(N)=O)NC(=O)[C@H](Cc2ccc(O)cc2)NC(=O)[C@H]2CCCN2C1=O    12
NCCCC[C@H]1NC(=O)[C@H](CCCN=C(N)N)NC(=O)[C@@H](Cc2ccc(O)cc2)NC(=O)[C@H](NC(=O)[C@@H](NC(=O)[C@H](CCCN=C(N)N)NC(=O)[C@@H](N)CCCN=C(N)N)c2ccc3ccccc3c2)CSSC[C@H](C(=O)N[C@@H](CCCN=C(N)N)C(N)=O)NC(=O)[C@H](CCCNC(N)=O)NC(=O)[C@H](CCCNC(N)=O)NC(=O)[C@H](Cc2ccc(O)cc2)NC(=O)[C@H]2CCCN2C(=O)[C@H](CCCNC(N)=O)NC1=O    250
NCCCC[C@@H]1NC(=O)[C@@H](CCCCN)NC(=O)[C@H](CCCNC(N)=O)NC(=O)[C@@H](Cc2ccc(O)cc2)NC(=O)[C@H](NC(=O)[C@@H](NC(=O)[C@H](CCCN=C(N)N)NC(=O)[C@@H](N)CCCN=C(N)N)c2ccc3ccccc3c2)CSSC[C@H](C(=O)N[C@@H](CCCN=C(N)N)C(=O)O)NC(=O)[C@H](CCCNC(N)=O)NC(=O)[C@H](CCCN=C(N)N)NC(=O)[C@H](Cc2ccc(O)cc2)NC(=O)[C@H]2CCCN2C1=O    180
NCCCC[C@@H]1NC(=O)[C@@H](CCCCN)NC(=O)[C@H](CCCNC(N)=O)NC(=O)[C@@H](Cc2ccc(O)cc2)NC(=O)[C@H](NC(=O)[C@@H](NC(=O)[C@H](CCCN=C(N)N)NC(=O)[C@@H](N)CCCNC(N)=O)c2ccc3ccccc3c2)CSSC[C@H](C(=O)N[C@@H](CCCN=C(N)N)C(N)=O)NC(=O)[C@H](CCCNC(N)=O)NC(=O)[C@H](CCCN=C(N)N)NC(=O)[C@H](Cc2ccc(O)cc2)NC(=O)[C@H]2CCCN2C1=O    53

Now examine the next entry.
// query // returns reported SI for input NCCCC[C@H]1NC(=O)[C@H](CCCN=C(N)N)NC(=O)[C@@H](Cc2ccc(O)cc2)NC(=O)[C@H](NC(=O)[C@@H](NC(=O)[C@H](CCCN=C(N)N)NC(=O)[C@@H](N)CCCNC(N)=O)c2ccc3ccccc3c2)CSSC[C@H](C(=O)N[C@@H](CCCN=C(N)N)C(N)=O)NC(=O)[C@H](CCCNC(N)=O)NC(=O)[C@H](CCCN=C(N)N)NC(=O)[C@H](Cc2ccc(O)cc2)NC(=O)[C@H]2CCCN2C(=O)[C@H](CCCNC(N)=O)NC1=O
// result 420
